Test system: RAW-Dual
Experiment: NF-kB SEAP reporter activity, fold change vs agonist alone; cytotoxicity flag (confluency mask): cytotoxic (confluency <70% of control); higher = enhanced NF-kB activity
Conditions: agonist: LPS (TLR4) 0.1 ug/mL
Whole data set: some 2,900 compounds, median “NF-kB SEAP reporter activity, fold change vs agonist alone” near 0.99, cut for the highest 2% near 2.6. This excerpt belongs to a sample that is enriched for the highest values.
Tick y if NF-kB SEAP reporter activity is 3 or greater. Tick n if NF-kB SEAP reporter activity is less than 3.

Check the entry Cc1cc2c(F)c(Oc3ncnn4cc(OCC(C)OC(=O)C(C)N)c(C)c34)ccc2[nH]1 (stereo not given) (library stock concentration (final ~1000-fold dilution): 10 mM) : does NF-kB SEAP reporter activity equal or exceed 3? n

Check the entry NC(=O)N1CCC(CC(=O)N2CCC(C3c4ncc(Br)cc4CCc4cc(Cl)cc(Br)c43)CC2)CC1 (stereo not given) (library stock concentration (final ~1000-fold dilution): 10 mM) : does NF-kB SEAP reporter activity equal or exceed 3? n

Check the entry COc1cc2c(cc1-c1c(C)noc1C)ncc1[nH]c(=O)n(C(C)c3ccccn3)c12 (stereo not given) (library stock concentration (final ~1000-fold dilution): 10 mM) : does NF-kB SEAP reporter activity equal or exceed 3? y

Check the entry Cl.NCCOCCOCCNC(=O)Cc1ccc(Nc2nc(NCc3ccc(F)cc3)nc(NCC3CCCCC3)n2)cc1 (library stock concentration (final ~1000-fold dilution): 10 mM) : does NF-kB SEAP reporter activity equal or exceed 3? n

Check the entry CS(=O)(=O)O.Cn1cc(C2=C(c3cn(CCCSC(=N)N)c4ccccc34)C(=O)NC2=O)c2ccccc21 (library stock concentration (final ~1000-fold dilution): 10 mM) : does NF-kB SEAP reporter activity equal or exceed 3? n

Check the entry CN1C(=O)C(C)(C)Oc2c(-c3cn(C)c(=O)c4[nH]ccc34)cc(S(C)(=O)=O)cc21 (library stock concentration (final ~1000-fold dilution): 10 mM) : does NF-kB SEAP reporter activity equal or exceed 3? n

Check the entry Cl.Cl.O=c1cc(CN2CCOCC2)occ1OCCCCCSc1ccnc2cc(C(F)(F)F)ccc12 (library stock concentration (final ~1000-fold dilution): 10 mM) : does NF-kB SEAP reporter activity equal or exceed 3? n

Check the entry Br.CCCc1cc(-c2nc(-c3ccc(C)cc3)cs2)ccn1 (library stock concentration (final ~1000-fold dilution): 10 mM) : does NF-kB SEAP reporter activity equal or exceed 3? n

Check the entry CC(C)(C)OC(=O)Nc1ccc(-c2cc(C(=O)NCCCCCCC(=O)NO)no2)cc1 (library stock concentration (final ~1000-fold dilution): 10 mM) : does NF-kB SEAP reporter activity equal or exceed 3? y

Check the entry Cc1cncc(CN2CCC(=C3c4ccc(Cl)cc4CCc4cccnc43)CC2)c1.O=C(O)/C=C/C(=O)O (library stock concentration (final ~1000-fold dilution): 10 mM) : does NF-kB SEAP reporter activity equal or exceed 3? n

Check the entry COc1ccc2[nH]cc(C=C3C(=O)Nc4ccc(NC(=O)CCN5CCCCC5)cc43)c2c1 (library stock concentration (final ~1000-fold dilution): 10 mM) : does NF-kB SEAP reporter activity equal or exceed 3? y

Check the entry O=C(CCCCCN1C(=O)c2cccc3cccc(c23)C1=O)NO (library stock concentration (final ~1000-fold dilution): 10 mM) : does NF-kB SEAP reporter activity equal or exceed 3? y

Check the entry CCNC(=O)C#Cc1ccc2c(c1)NC(=O)/C2=C(\Nc1ccc(CN(C)C)cc1)c1ccccc1 (library stock concentration (final ~1000-fold dilution): 10 mM) : does NF-kB SEAP reporter activity equal or exceed 3? n

Check the entry C=CC(=O)Nc1cc(Nc2nccc(-c3cn(C)c4ccccc34)n2)c(OC)cc1N(C)CCN(C)C.CS(=O)(=O)O (library stock concentration (final ~1000-fold dilution): 10 mM) : does NF-kB SEAP reporter activity equal or exceed 3? n

Check the entry CC/C=C\C/C=C\C/C=C\C/C=C\C/C=C\C/C=C\CCC(=O)NCCNC(=O)c1ccccc1O (library stock concentration (final ~1000-fold dilution): 10 mM) : does NF-kB SEAP reporter activity equal or exceed 3? n

Check the entry Cc1ccc(NC(=O)c2ccc(CN3CCC(N(C)C)C3)c(C(F)(F)F)c2)cc1Nc1nccc(-c2cncnc2)n1 (stereo not given) (library stock concentration (final ~1000-fold dilution): 10 mM) : does NF-kB SEAP reporter activity equal or exceed 3? n

Check the entry CNC(C)C(=O)NC(C(=O)N1CCCC1C(=O)NC1c2ccccc2CC1OCC#CC#CCOC1Cc2ccccc2C1NC(=O)C1CCCN1C(=O)C(NC(=O)C(C)NC)C1CCCCC1)C1CCCCC1 (stereo not given) (library stock concentration (final ~1000-fold dilution): 10 mM water) : does NF-kB SEAP reporter activity equal or exceed 3? n

Check the entry O=C(CCCCCCC(=O)N/N=C/c1ccc(N(c2ccccc2)c2ccccc2)cc1)NO (library stock concentration (final ~1000-fold dilution): 10 mM) : does NF-kB SEAP reporter activity equal or exceed 3? y

Check the entry CN(C)c1ccc(C(=O)NCCCCCCC(=O)NO)cc1 (library stock concentration (final ~1000-fold dilution): 10 mM) : does NF-kB SEAP reporter activity equal or exceed 3? y
